- ASSAY SYSTEM: Cannabinoid receptor 1 (Homo sapiens, UniProt P21554)
- Sequence (P21554 whole entry): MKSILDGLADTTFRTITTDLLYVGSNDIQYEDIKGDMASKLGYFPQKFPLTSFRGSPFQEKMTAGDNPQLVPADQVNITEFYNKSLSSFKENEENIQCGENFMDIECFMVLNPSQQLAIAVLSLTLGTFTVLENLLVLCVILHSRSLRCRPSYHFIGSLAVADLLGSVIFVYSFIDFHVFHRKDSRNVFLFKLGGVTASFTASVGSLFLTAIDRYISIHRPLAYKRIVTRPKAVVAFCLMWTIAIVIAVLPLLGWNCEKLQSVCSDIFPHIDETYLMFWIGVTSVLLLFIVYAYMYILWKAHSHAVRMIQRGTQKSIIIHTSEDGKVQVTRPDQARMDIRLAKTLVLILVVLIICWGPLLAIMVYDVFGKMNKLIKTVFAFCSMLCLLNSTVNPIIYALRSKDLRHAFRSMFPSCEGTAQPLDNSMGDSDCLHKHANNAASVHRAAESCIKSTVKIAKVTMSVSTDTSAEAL
- ASSAY INFO: biochemical
- Assay type: cell-based, HEK293
QUANTITY MEASURED: Ki (nM)
Write it as a number; the unit nM goes unstated.

What does the data say about its Ki? Entry: Cc1c(C(=O)NCCCNCCCNC(=O)c2nn(-c3ccc(Cl)cc3Cl)c(-c3ccc(Cl)cc3)c2C)nn(-c2ccc(Cl)cc2Cl)c1-c1ccc(Cl)cc1
41.9

Then this compound: Cc1c(C(=O)NCCCCCCCN(C)CCCCCCCNC(=O)c2nn(-c3ccc(Cl)cc3Cl)c(-c3ccc(Cl)cc3)c2C)nn(-c2ccc(Cl)cc2Cl)c1-c1ccc(Cl)cc1
27.5

Query Cc1c(C(=O)NCCCCCCCCCCCNCCCCCCCCCCCN)nn(-c2ccc(Cl)cc2Cl)c1-c1ccc(Cl)cc1 next
2.3

Next compound: Cc1c(C(=O)NCCCCCN(C)CCCCCNC(=O)c2nn(-c3ccc(Cl)cc3Cl)c(-c3ccc(Cl)cc3)c2C)nn(-c2ccc(Cl)cc2Cl)c1-c1ccc(Cl)cc1
6.35

What do you get for Cc1c(C(=O)NCCCCCCCCCNCCCCCCCCCNC(=O)c2nn(-c3ccc(Cl)cc3Cl)c(-c3ccc(Cl)cc3)c2C)nn(-c2ccc(Cl)cc2Cl)c1-c1ccc(Cl)cc1 ?
57.4

How about Cc1c(C(=O)NCCCCCCCCCN(C)CCCCCCCCCNC(=O)c2nn(-c3ccc(Cl)cc3Cl)c(-c3ccc(Cl)cc3)c2C)nn(-c2ccc(Cl)cc2Cl)c1-c1ccc(Cl)cc1 ?
94.1

Then Cc1c(C(=O)NCCCCCCCCCN(C)CCCCCCCCCN)nn(-c2ccc(Cl)cc2Cl)c1-c1ccc(Cl)cc1 ?
6.12

And what about the compound Cc1c(C(=O)NCCNCCN)nn(-c2ccc(Cl)cc2Cl)c1-c1ccc(Cl)cc1 ?
506

Note, next up: Cc1c(C(=O)NCCCCCCCNCCCCCCCNC(=O)c2nn(-c3ccc(Cl)cc3Cl)c(-c3ccc(Cl)cc3)c2C)nn(-c2ccc(Cl)cc2Cl)c1-c1ccc(Cl)cc1
4.41

And the next one, Cc1c(C(=O)NCCCCCN(C)CCCCCN)nn(-c2ccc(Cl)cc2Cl)c1-c1ccc(Cl)cc1 ?
88.8

Now consider Cc1c(C(=O)NCCCCCCCCCCCNCCCCCCCCCCCNC(=O)c2nn(-c3ccc(Cl)cc3Cl)c(-c3ccc(Cl)cc3)c2C)nn(-c2ccc(Cl)cc2Cl)c1-c1ccc(Cl)cc1 and answer again.
37

Now this one: Cc1c(C(=O)NCCCCCCCCCNCCCCCCCCCN)nn(-c2ccc(Cl)cc2Cl)c1-c1ccc(Cl)cc1
5.44

###

- ASSAY SYSTEM: Cannabinoid receptor 1 (Homo sapiens, UniProt P21554)
- ASSAY INFO: Antagonist activity at human brain CB1 receptor by calcium mobilization assay
- Format: functional
- COND: read-out: pA2 (converted)
Task for the reader: assign each of the following compounds its reported Kb.

Report Kb for Cc1c(C(=O)NCCCCCCCCCCCNCCCCCCCCCCCN)nn(-c2ccc(Cl)cc2Cl)c1-c1ccc(Cl)cc1 tested on Cannabinoid receptor 1 (Homo sapiens, UniProt P21554).
3.16 nM

Check Cc1c(C(=O)NCCCCCCCCCNCCCCCCCCCN)nn(-c2ccc(Cl)cc2Cl)c1-c1ccc(Cl)cc1 too.
5.62 nM

Now consider Cc1c(C(=O)NCCCCCCCN(C)CCCCCCCNC(=O)c2nn(-c3ccc(Cl)cc3Cl)c(-c3ccc(Cl)cc3)c2C)nn(-c2ccc(Cl)cc2Cl)c1-c1ccc(Cl)cc1 and answer again.
4.27 nM

Input Cc1c(C(=O)NCCCCCCCNCCCCCCCNC(=O)c2nn(-c3ccc(Cl)cc3Cl)c(-c3ccc(Cl)cc3)c2C)nn(-c2ccc(Cl)cc2Cl)c1-c1ccc(Cl)cc1
8.32 nM

Quick one: Cc1c(C(=O)NCCCCCCCCCCCN(C)CCCCCCCCCCCN)nn(-c2ccc(Cl)cc2Cl)c1-c1ccc(Cl)cc1
23.4 nM

Also, Cc1c(C(=O)NCCCCCCCNCCCCCCCN)nn(-c2ccc(Cl)cc2Cl)c1-c1ccc(Cl)cc1 please.
20.4 nM

Then what about the compound Cc1c(C(=O)NCCCCCCCCCCCNCCCCCCCCCCCNC(=O)c2nn(-c3ccc(Cl)cc3Cl)c(-c3ccc(Cl)cc3)c2C)nn(-c2ccc(Cl)cc2Cl)c1-c1ccc(Cl)cc1 ?
27.5 nM
